B1: tRNA (parent)
chain: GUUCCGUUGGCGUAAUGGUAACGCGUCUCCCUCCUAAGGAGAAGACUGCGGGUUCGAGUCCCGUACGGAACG

variants of: B1; assay: yeast fitness relative to wild type (ratio to wild type); higher = fitter; tRNA-Arg(CCU), competitive growth, 37 C, YPD
This sample holds only a part of the variants without activity.
assay_readout: yeast fitness

U16C C31A C34U A69C | ≤ 0.5

In: Please report the recorded yeast fitness for U28G C30A G51U .
Out: ≤ 0.5

In: Please report the recorded yeast fitness for C5U C11G A15U U32A U35G C55A C61G .
Out: ≤ 0.5

In: Please report the recorded yeast fitness for C5G G10C U13G A40G U54A .
Out: ≤ 0.5

In: Please report the recorded yeast fitness for C11G U32A C33G C34A A57C .
Out: ≤ 0.5
